From: ChEMBL document CHEMBL4680094

# target under test: Steroid hormone receptor ERR2 (Homo sapiens, UniProt O95718)
# Sequence (O95718 whole entry): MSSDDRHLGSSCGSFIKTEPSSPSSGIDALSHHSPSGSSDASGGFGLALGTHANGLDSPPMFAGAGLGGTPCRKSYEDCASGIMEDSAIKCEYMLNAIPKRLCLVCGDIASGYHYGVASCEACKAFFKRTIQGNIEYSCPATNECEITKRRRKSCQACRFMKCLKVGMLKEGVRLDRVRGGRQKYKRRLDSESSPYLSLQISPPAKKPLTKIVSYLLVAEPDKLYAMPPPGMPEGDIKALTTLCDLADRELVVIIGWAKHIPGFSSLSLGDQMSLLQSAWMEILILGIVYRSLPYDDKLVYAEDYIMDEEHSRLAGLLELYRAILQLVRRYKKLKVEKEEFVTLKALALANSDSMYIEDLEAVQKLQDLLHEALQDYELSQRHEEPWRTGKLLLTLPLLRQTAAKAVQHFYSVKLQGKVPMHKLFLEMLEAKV
# assay comment: Binding affinity to GST-tagged ERRbeta LBD (unknown origin) using fluorescein PGC1alpha as coactivator incubated for 1 hr by LanthaScreen TR-FRET co-regulator assay
measured endpoint: IC50

# input Any idea what its IC50 is? The molecule is CN1CCC[C@H]1COc1ccc(/C(=C(/CCCO)c2ccccc2)c2ccc(O)cc2)cc1.Cl
# output 3.99 µM

# input Which IC50 value is on record for CN1CCC[C@H]1CCOc1ccc(/C(=C(/CCCO)c2ccccc2)c2ccc(O)cc2)cc1 ?
# output 8.59 µM

# input May I ask what IC50 has been recorded for C[Si](C)(CN1CCCCC1)c1ccc(/C(=C(/CCCO)c2ccccc2)c2ccc(O)cc2)cc1 ?
# output > 10 µM

# input Fill in the blank: the reported IC50 of OCCC/C(=C(\c1ccc(O)cc1)c1ccc(OCCN2CCCC2)cc1)c1ccccc1 is ____.
# output > 10 µM

# input I'd like to know its IC50. The molecule in question is CN1CCCC1CCOc1ccc(/C(=C(/CCCO)c2ccccc2)c2ccc(O)cc2)cc1.Cl (stereo unspecified)
# output 6.01 µM

# input Requested field: IC50. Item: CN1CCC[C@@H]1COc1ccc(/C(=C(/CCCO)c2ccccc2)c2ccc(O)cc2)cc1.Cl
# output > 10 µM

# input Return reported IC50; argument: C[Si](C)(CN1CCCC1)c1ccc(/C(=C(/CCCO)c2ccccc2)c2ccc(O)cc2)cc1
# output > 10 µM

# input Give its IC50 value. Item: OCCC/C(=C(\c1ccc(O)cc1)c1ccc(OCCN2CCC[C@@H]2CO)cc1)c1ccccc1
# output > 10 µM

# input molecule: CN1CCC[C@@H]1CCOc1ccc(/C(=C(/CCCO)c2ccccc2)c2ccc(O)cc2)cc1 ; wanted: its IC50
# output > 10 µM

# input Look at this molecule and give its reported IC50. OCCC/C(=C(\c1ccc(O)cc1)c1ccc(OCCN2C[C@H]3CNC[C@H]3C2)cc1)c1ccccc1
# output > 10 µM

# input Report IC50 for OCCC/C(=C(\c1ccc(O)cc1)c1ccc(OCCN2CC2)cc1)c1ccccc1 please.
# output 3.72 µM

###

# target under test: Voltage-gated inwardly rectifying potassium channel KCNH2 (Homo sapiens, UniProt Q12809)
# Sequence (Q12809 whole entry): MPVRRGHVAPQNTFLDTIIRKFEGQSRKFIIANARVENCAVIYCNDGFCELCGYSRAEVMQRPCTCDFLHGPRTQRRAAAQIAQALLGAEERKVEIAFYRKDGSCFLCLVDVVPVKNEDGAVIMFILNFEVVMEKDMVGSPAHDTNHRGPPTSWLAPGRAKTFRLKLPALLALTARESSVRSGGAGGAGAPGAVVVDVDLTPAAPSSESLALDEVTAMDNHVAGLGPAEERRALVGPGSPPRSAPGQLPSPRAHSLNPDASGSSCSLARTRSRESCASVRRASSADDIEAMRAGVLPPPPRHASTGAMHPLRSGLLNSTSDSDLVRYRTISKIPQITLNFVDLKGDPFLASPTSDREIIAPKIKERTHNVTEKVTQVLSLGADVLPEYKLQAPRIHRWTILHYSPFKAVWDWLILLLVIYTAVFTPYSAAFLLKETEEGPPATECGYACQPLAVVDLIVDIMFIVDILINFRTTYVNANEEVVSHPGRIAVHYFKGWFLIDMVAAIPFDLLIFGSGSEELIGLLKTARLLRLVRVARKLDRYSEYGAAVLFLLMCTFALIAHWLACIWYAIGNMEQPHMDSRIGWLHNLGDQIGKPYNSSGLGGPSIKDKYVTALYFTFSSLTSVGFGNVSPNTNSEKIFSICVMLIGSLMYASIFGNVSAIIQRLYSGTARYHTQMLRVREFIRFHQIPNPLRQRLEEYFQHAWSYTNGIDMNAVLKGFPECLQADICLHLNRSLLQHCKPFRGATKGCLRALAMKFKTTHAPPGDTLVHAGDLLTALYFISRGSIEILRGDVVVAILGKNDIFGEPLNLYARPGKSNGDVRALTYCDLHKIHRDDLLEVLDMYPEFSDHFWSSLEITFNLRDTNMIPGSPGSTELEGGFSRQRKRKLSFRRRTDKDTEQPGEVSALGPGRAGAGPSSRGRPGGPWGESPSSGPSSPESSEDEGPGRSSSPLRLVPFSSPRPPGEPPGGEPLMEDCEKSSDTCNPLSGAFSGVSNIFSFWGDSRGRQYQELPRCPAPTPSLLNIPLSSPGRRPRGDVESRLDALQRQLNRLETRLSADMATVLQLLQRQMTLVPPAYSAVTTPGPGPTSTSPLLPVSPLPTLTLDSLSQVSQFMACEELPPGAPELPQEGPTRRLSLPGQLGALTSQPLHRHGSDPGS
Assignment: determine reported pIC50 for the given compounds.
# reply with the number alone; pIC50 is -log10 of concentration in mol/L

# input // lookup pIC50 for CN1CCCC1CCOc1ccc(/C(=C(/CCCO)c2ccccc2)c2ccc(Br)cc2)cc1.Cl (configuration not stated)
# output 5.77

# input Please give the measured pIC50 for this compound: CN1CCC[C@H]1COc1ccc(/C(=C(/CCCO)c2ccccc2)c2ccc(Br)cc2)cc1.Cl
# output 5.33

###

Task for the reader: assign each of the following compounds its reported pIC50.
# target under test: UniProt P03372
# Sequence (P03372 whole entry): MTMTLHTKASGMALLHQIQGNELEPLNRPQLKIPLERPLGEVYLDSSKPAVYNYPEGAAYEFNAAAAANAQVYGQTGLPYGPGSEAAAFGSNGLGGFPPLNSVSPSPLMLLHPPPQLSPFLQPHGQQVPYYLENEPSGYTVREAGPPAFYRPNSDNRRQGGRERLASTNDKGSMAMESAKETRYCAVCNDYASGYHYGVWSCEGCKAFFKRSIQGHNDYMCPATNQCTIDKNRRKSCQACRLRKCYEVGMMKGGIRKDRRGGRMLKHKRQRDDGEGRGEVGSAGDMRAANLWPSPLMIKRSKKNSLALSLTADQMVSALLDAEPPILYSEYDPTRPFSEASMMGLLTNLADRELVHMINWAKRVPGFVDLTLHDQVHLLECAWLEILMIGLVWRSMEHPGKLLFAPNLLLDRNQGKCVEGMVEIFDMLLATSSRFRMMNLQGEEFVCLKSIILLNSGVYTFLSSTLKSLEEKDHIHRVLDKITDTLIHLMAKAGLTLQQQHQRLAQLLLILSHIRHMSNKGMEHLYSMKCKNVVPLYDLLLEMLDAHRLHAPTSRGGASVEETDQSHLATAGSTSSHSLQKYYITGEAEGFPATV
Expect pIC50 as a plain number equal to -log10 of the molar concentration.

# input Lab note: need pIC50 with UniProt P03372 for entry C[Si](C)(CN1CCCCC1)c1ccc(/C(=C(/CCCO)c2ccccc2)c2ccc(O)cc2)cc1 , please look it up.
# output 5.36

# input Form: Entry = CN1CCC[C@@H]1CCOc1ccc(/C(=C(/CCCO)c2ccccc2)c2ccc(O)cc2)cc1 | System = UniProt P03372 | pIC50 = ____
# output 6.11

# input Checklist item: pIC50 tested on UniProt P03372, entry CN1CCC[C@H]1CCOc1ccc(/C(=C(/CCCO)c2ccccc2)c2ccc(O)cc2)cc1 , value?
# output 6.14

# input Kindly state the measured pIC50 obtained for CN1CCC[C@H]1COc1ccc(/C(=C(/CCCO)c2ccccc2)c2ccc(O)cc2)cc1.Cl with UniProt P03372.
# output 5.97

# input Notebook entry, UniProt P03372 assay: pIC50 of OCCC/C(=C(\c1ccc(O)cc1)c1ccc(OCCN2CCC3(CCNC3)C2)cc1)c1ccccc1 (stereo not drawn) = ?
# output 5.25

# input What is its pIC50 for UniProt P03372? Entry: OCCC/C(=C(\c1ccc(O)cc1)c1ccc(OCCN2CCCC2)cc1)c1ccccc1
# output 6.19

# input Requested read-out pIC50, target or system UniProt P03372, entry CN1CCC[C@@H]1COc1ccc(/C(=C(/CCCO)c2ccccc2)c2ccc(O)cc2)cc1.Cl
# output 5.43
